# EXPERIMENTAL TARGET: KRAS G12C (Homo sapiens, UniProt P01116+P62937, G12C)
# Sequence (P01116 1-169 isoform P01116-2 G12C): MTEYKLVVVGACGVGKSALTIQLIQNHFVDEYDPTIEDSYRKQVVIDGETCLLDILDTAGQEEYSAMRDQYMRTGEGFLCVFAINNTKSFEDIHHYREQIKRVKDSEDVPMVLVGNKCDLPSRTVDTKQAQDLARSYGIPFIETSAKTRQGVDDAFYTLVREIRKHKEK
# Sequence (P62937 whole entry): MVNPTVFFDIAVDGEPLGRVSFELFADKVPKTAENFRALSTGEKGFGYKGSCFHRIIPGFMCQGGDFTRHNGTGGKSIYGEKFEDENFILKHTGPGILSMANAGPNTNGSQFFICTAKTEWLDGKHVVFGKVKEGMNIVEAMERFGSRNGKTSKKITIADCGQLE
# ASSAY EXPLANATION: Disruption of BRAF RBD interaction with Ras (FRET / MOA assay, with Cyclophilin A)
# Assay type: biochemical
# CONDITION DETAILS: read-out: KRAS G12C FRET data, IC50
# From the text: This protocol may also be executed substituting other Ras proteins or nucleotides. The purpose of this biochemical assay was to measure the ability of test compounds to facilitate ternary complex formation between a nucleotide-loaded K-Ras isoform and Cyclophilin A; the resulting ternary complex disrupts binding to a BRAF^RBD construct, inhibiting K-Ras signaling through a RAF effector. Data is reported as IC50 values. […]
pIC50: −log10 of the molar value.
ATTRIBUTE MEASURED: pIC50

MOLECULE | EXPERIMENTAL TARGET | RESULT
CCn1c(-c2cccnc2[C@H](C)OC)c2c3cc(ccc31)-c1csc(n1)C[C@H](NC(=O)[C@H](C1CCCC1)N(C)C(C)=O)C(=O)N1CCC[C@H](N1)C(=O)OCC(C)(C)C2 | KRAS G12C (Homo sapiens, UniProt P01116+P62937, G12C) | 5.00 to 6.00
CCn1c(-c2cccnc2[C@H](C)OC)c2c3cc(ccc31)-c1csc(n1)C[C@H](NC(=O)[C@H](C(C)C)N(C)C(=O)N1CC([C@@H](C)N(C)C)C1)C(=O)N1CCC[C@H](N1)C(=O)OCC(C)(C)C2 (atropisomer, axis not shown) | KRAS G12C (Homo sapiens, UniProt P01116+P62937, G12C) | 7.00 to 8.00
CCn1c(-c2cccnc2[C@H](C)OC)c2c3cc(ccc31)-c1csc(n1)C[C@H](NC(=O)[C@H](C(C)C)N(C)C(=O)N1CCC[C@H]1CN(C)C)C(=O)N1CCC[C@H](N1)C(=O)OCC(C)(C)C2 | KRAS G12C (Homo sapiens, UniProt P01116+P62937, G12C) | 6.00 to 7.00
CCn1c(-c2cccnc2[C@H](C)OC)c2c3cc(ccc31)-c1cc(O)cc(c1)C[C@H](NS(=O)(=O)CC1OCCC13CNC3)C(=O)N1CCC[C@H](N1)C(=O)OCC(C)(C)C2 (mixture of isomers) | KRAS G12C (Homo sapiens, UniProt P01116+P62937, G12C) | < 5.00
CCn1c(-c2cccnc2[C@H](C)OC)c2c3cc(ccc31)-c1cc(O)cc(c1)C[C@H](NC(=O)[C@@H]1C[C@H]1C)C(=O)N1CCC[C@H](N1)C(=O)OCC(C)(C)C2 | KRAS G12C (Homo sapiens, UniProt P01116+P62937, G12C) | 6.00 to 7.00
CCn1c(-c2cccnc2[C@H](C)OC)c2c3cc(ccc31)-c1cc(O)cc(c1)C[C@H](NC(=O)[C@H](C(C)C)N(C)C(=O)[C@H]1CCCN[C@@H]1C)C(=O)N1CCC[C@H](N1)C(=O)OCC(C)(C)C2 | KRAS G12C (Homo sapiens, UniProt P01116+P62937, G12C) | 6.00 to 7.00
CCn1c(-c2cccnc2[C@H](C)OC)c2c3cc(ccc31)-c1cccc(c1)C[C@H](NC(=O)[C@H](C(C)C)N(C)C(=O)[C@H]1CCN(C(=O)CN)C1)C(=O)N1CCC[C@H](N1)C(=O)OCC(C)(C)C2 | KRAS G12C (Homo sapiens, UniProt P01116+P62937, G12C) | 6.00 to 7.00
CCn1c(-c2cc(N3CCN(C)CC3)cnc2[C@H](C)OC)c2c3cc(ccc31)-c1csc(n1)C[C@H](NC(C)=O)C(=O)N1CCC[C@H](N1)C(=O)OCC(C)(C)C2 [Example A321] | KRAS G12C (Homo sapiens, UniProt P01116+P62937, G12C) | 7.00 to 8.00
CCn1c(-c2cccnc2[C@H](C)OC)c2c3cc(ccc31)-c1csc(n1)C[C@H](NC(=O)[C@H](C(C)C)N(C)C(=O)N1C[C@H](C)N(C)C[C@@H]1C)C(=O)N1CCC[C@H](N1)C(=O)OCC(C)(C)C2 | KRAS G12C (Homo sapiens, UniProt P01116+P62937, G12C) | 6.00 to 7.00
